- system: T1, Znf706 (Homo sapiens, UniProt Q9Y5V0 1-76)
- T1 sequence: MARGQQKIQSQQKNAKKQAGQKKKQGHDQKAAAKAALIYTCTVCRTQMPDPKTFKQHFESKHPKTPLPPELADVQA
- assay-overview: MST; range over all G4s; weakest; exact value in figure; FP/anisotropy: 20 mM NaPi, 100 mM KCl, 0.05% NaN3, pH 7.4, 25 C (LiCl variant: 20 mM Tris-HCl, 100 mM LiCl, pH 7.4; NaCl variant: 20 mM NaPi, 100 mM NaCl, pH 7.4); NMR: 20 mM NaPi, 100 mM KCl, 7.5% D2O, pH 7.4, 4-50 C
- settings: protein: recombinant; tags: none (His6-SUMO cleaved); chain copies: 2; label: 5' 6-FAM
pKd: −log10 of the molar value.
experimental-readout: pKd

Reported pKd ( GGCGAGGAGGGGCGTGGCCGGC (structured_DNA) [Kit*, 6-FAM] ) = ~5.35
